Source of measurements: paper PMC10023970

- Test system: RD
- method.notes: cells
- measurement.parameters: Homo sapiens, RD, read-out: EC50 for cell killing (μM) / NAV-2729
measured.parameter: EC50 (µM)
Answer in µM, number only, no unit symbol.

Quick one: give measured EC50 for O=c1cc(-c2ccc([N+](=O)[O-])cc2)[nH]c2c(-c3ccc(Cl)cc3)c(Cc3ccccc3)nn12
8

###

- System: RD
- method.notes: cells
- measurement.parameters: Homo sapiens, RD, read-out: EC50 for cell killing (μM) / Brefeldin A
measured.parameter: EC50 (µM)
Answer in µM, number only, no unit symbol.

Quote RD EC50 for entry C[C@H]1CCC/C=C/[C@@H]2C[C@H](O)C[C@H]2[C@H](O)/C=C/C(=O)O1 .
0.006
